Molecular target: USP7 (Homo sapiens, UniProt Q93009, C315A)
Construct: 0.25 nM His-His-USP7 (aa208-560, |C315A|) was incubated with compound; His-His (N)
Sequence (Q93009 208-560 C315A): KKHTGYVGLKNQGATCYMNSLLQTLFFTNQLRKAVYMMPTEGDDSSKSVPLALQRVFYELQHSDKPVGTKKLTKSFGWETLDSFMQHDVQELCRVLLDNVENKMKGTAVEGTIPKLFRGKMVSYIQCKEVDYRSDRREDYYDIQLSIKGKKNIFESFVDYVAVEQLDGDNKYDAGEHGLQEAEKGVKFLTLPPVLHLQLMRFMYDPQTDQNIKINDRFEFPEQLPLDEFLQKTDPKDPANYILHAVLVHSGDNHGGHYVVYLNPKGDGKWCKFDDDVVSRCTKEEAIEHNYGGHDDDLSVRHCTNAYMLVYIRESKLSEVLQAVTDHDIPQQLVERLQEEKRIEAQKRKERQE
Assay: Inhibition of USP7 by Fluorescence Intensity (FLINT) readings, Ubiquitin-Rhodamine-110 substrate
Format: biochemical
Conditions: 0.25 nM His-His-USP7 (aa208-560), 60 minutes at 30° C. preincubation; Ki determined from IC50 according to Cer et al.
Note that class boundaries on Ki are low = under 9 nM, medium = from 9 nM up to 50 nM, high = 50 nM and over

CC(C)(C)OC(=O)N1CC[C@@H](C(=O)N2CCC(O)(Cn3cnc(Oc4ccc(Cl)cc4)c(N)c3=O)CC2)[C@H](c2ccccc2)C1 [Example 1] :: high
Cc1nc(C2CCCNC2)sc1C(=O)N1CC[C@@H](C(=O)N2CCC(O)(Cn3cnc(Oc4ccc(F)cc4)c(N)c3=O)CC2)[C@H](c2ccccc2)C1 (stereo partly drawn) [Example 172] :: low
Nc1c(Oc2ccc(F)cc2)ncn(CC2(O)CCN(C(=O)[C@@H]3CCN(Cc4cnccn4)C[C@H]3c3ccccc3)CC2)c1=O [Example 63] :: medium
Cc1ccc(-c2ccc(S(=O)(=O)N3CC[C@@H](C(=O)N4CCC(O)(Cn5cnc(Oc6ccc(F)cc6)c(N)c5=O)CC4)[C@H](c4ccccc4)C3)s2)cn1 [Example 117] :: medium
Nc1c(Oc2ccc(F)cc2)ncn(CC2(O)CCN(C(=O)[C@@H]3CCN(S(=O)(=O)c4ccc(Br)s4)C[C@H]3c3ccccc3)CC2)c1=O [Example 59] :: medium
Cc1nc(C2CCC2)sc1C(=O)N1CC[C@@H](C(=O)N2CCC(O)(Cn3cnc(Oc4ccc(F)cc4)c(N)c3=O)CC2)[C@H](c2ccccc2)C1 [Example 165] :: medium
Cc1cncc(C(=O)N2CC[C@@H](C(=O)N3CCC(O)(Cn4cnc(Oc5ccc(F)cc5)c(N)c4=O)CC3)[C@H](c3ccccc3)C2)c1 [Example 92] :: low
Nc1c(Oc2ccc(F)cc2)ncn(CC2(O)CCN(C(=O)[C@@H]3CCN(C4(c5cccc(C(F)(F)F)c5)COC4)C[C@H]3c3ccccc3)CC2)c1=O [Example 152] :: high
CN(C(=O)CN1CC[C@@H](C(=O)N2CCC(O)(Cn3cnc(Oc4ccc(F)cc4)c(N)c3=O)CC2)[C@H](c2ccccc2)C1)c1ccccc1 [Example 74] :: high

q: Looking at Nc1c(Oc2ccc(F)cc2)ncn(CC2(O)CCN(C(=O)[C@@H]3CCN(Cc4cccnc4)C[C@H]3c3ccccc3)CC2)c1=O [Example 62] , which class would you pick?
a: medium

---

Target: USP7 (Homo sapiens, UniProt Q93009, C315A)
Construct: 0.25 nM His-His-USP7 (aa208-560, |C315A|) was incubated with compound; His-His (N)
Test: Inhibition of USP7 by Fluorescence Intensity (FLINT) readings, Ubiquitin-Rhodamine-110 substrate
Assay type: biochemical
Settings: 0.25 nM His-His-USP7 (aa208-560), 60 minutes at 30° C. preincubation; Ki determined from IC50 according to Cer et al.
Structures can show the parent of a compound that is named as a salt.
readout: Ki

Would you please look over these solved cases?
Cc1nc(N2CCOCC2)sc1C(=O)N1CC[C@@H](C(=O)N2CCC(O)(Cn3cnc(Oc4ccc(F)cc4)c(N)c3=O)CC2)[C@H](c2ccccc2)C1 :: 6.4 nM
Cc1cncc(CN2CC[C@@H](C(=O)N3CC[C@](O)(Cn4cnc(Oc5ccc(F)cc5)c(N)c4=O)C(F)(F)C3)[C@H](c3ccccc3)C2)n1 :: 27.4 nM
COc1cc(Oc2ncn(C[C@@]3(O)CCN(C(=O)[C@@H]4CCN(Cc5ccnc(C)n5)C[C@H]4c4ccccc4)CC3(F)F)c(=O)c2N)ccc1C1CC1 :: 69.9 nM
Nc1c(Oc2ccc(F)cc2)ncn(CC2(O)CCN(C(=O)[C@@H]3CCN(C(=S)Nc4ccccc4)C[C@H]3c3ccccc3)CC2)c1=O :: 75.9 nM

Form: item Nc1c(Oc2cccc(OC(F)(F)F)c2)ncn(CC2(O)CCN(C(=O)[C@@H]3CCNC[C@H]3c3ccccc3)CC2)c1=O [Example 19, hydrochloride] ; test system USP7 (Homo sapiens, UniProt Q93009, C315A); Ki: 344 nM

Form: item `Cc1nc(-c2ccc(F)cc2)sc1C(=O)N1CC[C@@H](C(=O)N2CCC(O)(Cn3cnc(Oc4ccc(F)cc4)c(N)c3=O)CC2)[C@H](c2ccccc2)C1` ; test system USP7 (Homo sapiens, UniProt Q93009, C315A); Ki: 5.2 nM
